# GI50 per entry
test system: MDA-MB-231 breast; experiment: NCI tumour cell line growth inhibition, 48 h

Molecule	Measure name	Result
CCc1c2c(nc3ccc(OC(=O)OCc4ccc(B5OC(C)(C)C(C)(C)O5)cc4)cc13)-c1cc3c(c(=O)n1C2)COC(=O)[C@]3(O)CC	GI50	892 nM
COc1ccc(-c2nsc3c2NC(=O)CC3c2cccc(F)c2)cc1 (centres undefined)	GI50	6340 nM
O=C(CCN1CCCC1)Nc1ccc2c(Nc3ccc(Br)cc3)c3ccccc3nc2c1	GI50	1570 nM
Cc1c(C(=O)/C=C/c2ccc(Cl)cc2)nnn1-c1ccnc2c(C(F)(F)F)cccc12	GI50	17200 nM
C=C1C(=O)O[C@H]2C3OC3(C)CC/C=C(/C(=O)OC)[C@@H](OC(C)=O)[C@H](OC(=O)C3(C)OC3C)[C@H]12 (some centres undefined)	GI50	1230 nM

Entry CCOC1Oc2ccccc2C(=O)/C1=C\Nc1ccc(C(=O)O)c(O)c1 (centres undefined) : reported GI50 = ?
14000 nM

Entry "CN(CO)c1nc(N(C)CO)nc(N(C)CO)n1" : reported GI50 = ?
18300 nM

Entry "O=C(C(=O)c1cccnc1)c1cccnc1" : reported GI50 = ?
> 100000 nM

Entry "CCN(CC)CCNc1ccc(N=Nc2cnc3ccccc3c2)c2ccccc12" : reported GI50 = ?
1120 nM

Entry COC1/C=C/OC2(C)Oc3c(C)c(O)c4c(O)c(c(/C=N/N(c5ccccc5)c5ccccc5)c(O)c4c3C2=O)NC(=O)C(C)=C/C=C/C(C)C(O)C(C)C(O)C(C)C(OC(C)=O)C1C (centres undefined) : reported GI50 = ?
1380 nM

---

# TGI per entry
tested on: HT29 colon; experiment: NCI tumour cell line growth inhibition, 48 h

In the examples that follow, each entry is paired with its recorded TGI.
Molecule	TGI
Oc1c(Cl)c(Cl)c(O)c(-c2cnc(-c3ncc(-c4c(O)c(Cl)c(Cl)c(O)c4Cl)s3)s2)c1Cl	> 100 µM
CC1=C(N2CC2)C(=O)C(C)=C(N2CC2)C1=O	1 µM
CSC(=NC(=O)c1ccccc1)SCCSC(=NC(=O)c1ccccc1)SC	> 100 µM
COc1cc2c(cc1OC)-c1c(c3ccc([N+](=O)[O-])cc3c(=O)n1CCCN=[N+]=[N-])C2=O	> 100 µM
CCCc1nn(C)c(CCC(=O)N(Cc2ccccc2)Cc2ccccc2)c1CC	> 100 µM

Entry "O=C(/C=C/c1ccc(O)c(O)c1)c1ccc(O)cc1O" : reported TGI = ?
33.4 µM

Entry "CCOC(=O)C(C(=O)OCC)S(C)(=O)=O" : reported TGI = ?
> 100 µM

Entry CC(=O)C(C(=O)C(=O)Nc1cc(Cl)c(Cl)cc1Cl)c1csc(N)n1 (stereo not given) : reported TGI = ?
> 100 µM

Entry "CCOC(=O)c1c(Br)c(-c2ccc([N+](=O)[O-])cc2)c(Br)n1C" : reported TGI = ?
> 10 µM

Entry "CCCCCCc1cc2cc(-c3cn4ccccc4n3)c(=O)oc2cc1O" : reported TGI = ?
> 100 µM

---

# TGI per entry
system: RXF-631 renal; assay: NCI tumour cell line growth inhibition, 48 h

In the examples that follow, each entry is paired with its recorded TGI.
Compound	TGI
CCCCCCCCCCCCCCCCCC(=O)NCC(COP(=O)([O-])OCC[N+](C)(C)C)OCC (configuration not stated)	37.5 µM
CCCCCCCCCCCCCC(=O)NO	> 62.5 µM
CCOC(=O)C(C(=O)OCC)S(C)(=O)=O	> 100 µM
COc1ccccc1NC(=O)C(=O)C(c1cnc2ccc([N+](=O)[O-])cc2n1)[N+](=O)[O-] (configuration not stated)	> 100 µM
COc1ccc(C(=O)Nc2ccn(CCOC(=O)c3ccc(OC)cc3)c(=O)n2)cc1	> 100 µM
O=C1CS(=O)c2ccccc2N1 (configuration not stated)	> 100 µM

Note: attention shifts to another entry.
Entry c1ccc(N2CCN(CCCN3CCc4c([nH]c5ccccc45)C3c3cccnc3)CC2)cc1 (configuration not stated) : reported TGI = ?
98.2 µM
